These measurements were taken from the RNAGym collection of RNA variant scans (doi:10.7554/elife.90254).

B1: LINE1-full (parent)
chain: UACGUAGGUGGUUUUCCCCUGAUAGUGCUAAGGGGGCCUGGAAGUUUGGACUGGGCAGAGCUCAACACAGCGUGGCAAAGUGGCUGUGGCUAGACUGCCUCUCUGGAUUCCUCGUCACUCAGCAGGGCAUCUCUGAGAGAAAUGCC

variants of: B1; assay: self-cleavage, relative activity (ratio to wild type); higher = more cleavage; in vitro, sequencing; the parent is a self-cleaving ribozyme
REPORTED ENDPOINT: self-cleavage
The response must contain the number and no unit.

G48A A69C; 0.02

Asked: Which self-cleavage is reported for this variant? A59C A142G
Given back: 0.57

Asked: Which self-cleavage value is on record for A2G A6G ?
Given back: 0.68
